System: SNB-78 CNS
method.notes: NCI tumour cell line growth inhibition, 48 h
endpoint.name: log10 TGI (log10 of the value in µM)

compound: CC(=O)Oc1ccc(O)c(O)c1C/C=C(\C)CC/C=C(\C)CC/C=C(\C)CCC=C(C)C
log10 TGI: 0.13
//
compound: CC(=O)NC1=C(C)C(=O)c2c(nc3n2CCC3O)C1=N (stereo unspecified)
log10 TGI: 0.93
//
compound: NC(=O)N1N=C2c3ccccc3SC[C@H]2[C@@H]1c1ccccc1
log10 TGI: 1.97
//
compound: COc1ccc(-c2cc(N3CCN(c4ccccc4)CC3)c(C#N)c(=O)o2)cc1
log10 TGI: 1.77
//
compound: COc1ccc2oc3cccc(NCCN(C)C)c3c(=O)c2c1
log10 TGI: 1.56
